- measured_target: human recombinant histamine H1 receptor (Homo sapiens, UniProt P35367)
- Construct: expressed in transfected cells; host or cells: CHO cells
- Sequence (P35367 whole entry): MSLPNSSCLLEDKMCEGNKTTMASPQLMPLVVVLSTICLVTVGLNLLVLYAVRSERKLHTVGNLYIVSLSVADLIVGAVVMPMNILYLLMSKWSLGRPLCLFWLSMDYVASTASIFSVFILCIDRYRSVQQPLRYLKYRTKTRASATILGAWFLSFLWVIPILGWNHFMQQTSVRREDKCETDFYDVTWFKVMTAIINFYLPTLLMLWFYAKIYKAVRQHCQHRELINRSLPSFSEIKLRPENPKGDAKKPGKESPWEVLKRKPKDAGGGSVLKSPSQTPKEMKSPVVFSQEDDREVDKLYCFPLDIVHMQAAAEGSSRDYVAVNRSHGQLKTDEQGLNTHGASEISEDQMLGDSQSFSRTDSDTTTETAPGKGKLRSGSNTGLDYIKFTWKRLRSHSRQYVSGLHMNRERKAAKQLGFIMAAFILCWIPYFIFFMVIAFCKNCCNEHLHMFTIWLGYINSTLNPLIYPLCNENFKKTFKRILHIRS
- protocol_summary: Histamine H1 radioligand binding ([3H]Pyrilamine)
- measurement_setup: 1 μM; read-out: Binding data (Percentage Inhibition) Histamine Binding (1 μM) H1
- Protocol: To evaluate in radioligand binding assays the activity of compounds of the invention, human recombinant histamine H1 receptor expressed in Chinese hamster ovary (CHO) cells (De Backer, M. D. et al., Biochem. Biophys. Res. Comm. 197(3):1601, 1993) in a modified Tris-HCl buffer (50 mM Tris-HCl, pH 7.4, 2 mM MgCl2, 100 mM NaCl, 250 mM Sucrose) was used. […] Receptor proteins were filtered and washed, the filters were then counted to determine [^3H]Pyrilamine specifically bound. […]
Listing of entries alongside the reported inhibition at 1 µM.
Kindly answer with a numeric value in %, unit omitted.

Q) Requested field: inhibition at 1 µM. Item: Cc1ccc2c(c1)c1c(n2CC(O)c2ccccc2F)CN(C)CC1 (centres unmarked)
A) 19

Q) Requested field: inhibition at 1 µM. Item: CN1CCc2c(n(CC(O)c3ccccc3)c3ccc(Cl)cc23)C1 (centres unmarked)
A) 54

Q) Requested field: inhibition at 1 µM. Item: CN1CCc2c(n(CCc3ccc(F)cc3)c3ccc(Cl)cc23)C1
A) 83

Q) Requested field: inhibition at 1 µM. Item: COc1ccc(C(O)Cn2c3c(c4cc(C)ccc42)CCN(C)C3)cc1OC (centres unmarked)
A) 19

Q) Requested field: inhibition at 1 µM. Item: CCC1c2c(c3cc(Cl)ccc3n2C(=O)Cc2ccc(F)cc2)CCN1C (centres unmarked)
A) 15

* * *

- measured_target: human recombinant histamine H2 receptor (Homo sapiens, UniProt P25021)
- Construct: expressed in transfected cells; host or cells: CHO-K1 cells
- Sequence (P25021 whole entry): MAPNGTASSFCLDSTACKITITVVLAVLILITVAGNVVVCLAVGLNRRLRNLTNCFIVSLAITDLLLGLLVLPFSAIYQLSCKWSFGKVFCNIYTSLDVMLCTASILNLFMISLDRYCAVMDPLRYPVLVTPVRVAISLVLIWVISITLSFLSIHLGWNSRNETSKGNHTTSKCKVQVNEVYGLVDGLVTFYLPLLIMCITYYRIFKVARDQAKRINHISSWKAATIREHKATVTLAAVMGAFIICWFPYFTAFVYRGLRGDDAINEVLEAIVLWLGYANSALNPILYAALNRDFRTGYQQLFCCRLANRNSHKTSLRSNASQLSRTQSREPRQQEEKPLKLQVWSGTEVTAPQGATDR
- protocol_summary: Histamine H2 radioligand binding ([125I]Aminopotentidine)
- measurement_setup: 1 μM; inhibition of specific [125I]Aminopotentidine binding; read-out: Binding data (Percentage Inhibition) Histamine Binding (1 μM) H2
Listing of entries alongside the reported inhibition at 1 µM.
Kindly answer with a numeric value in %, unit omitted.

1) Cc1ccc(C(O)Cn2c3c(c4cc(C)ccc42)CCN(C)C3)cc1 (stereo not drawn) = 19
2) CN1CCc2c(n(CC(=O)Nc3ccc(F)cc3)c3ccc(Cl)cc23)C1 = -3
3) CN1CCc2c(n(CC(O)c3ccccc3)c3ccc(Cl)cc23)C1 (stereo not drawn) = 11
4) CN1CCc2c(n(CC(=O)NC3CCCCC3)c3ccc(Cl)cc23)C1 = -6
5) Cc1ccc2c(c1)c1c(n2C(=O)Cc2ccc(Cl)cc2)C(c2ccccc2)N(C)CC1 (stereo not drawn) = 27
6) CC1CCN(C(=O)Cn2c3c(c4cc(Cl)ccc42)CCN(C)C3)CC1 = 3
7) CCC1c2c(c3cc(Cl)ccc3n2CC(C)(O)c2ccc(F)cc2)CCN1C (stereo not drawn) = 20
8) Cc1ccc2c(c1)c1c(n2C#Cc2ccc(Cl)cc2)CN(C)CC1 = 51

Q) Requested field: inhibition at 1 µM. Item: C/C(=C\n1c2c(c3cc(Cl)ccc31)CCN(C)C2C)c1ccc(Cl)c(Cl)c1 (stereo not drawn)
A) 71

* * *

- measured_target: human recombinant serotonin (5-Hydroxytryptamine) 5-HT6 receptor (Homo sapiens)
- Construct: expressed in transfected cells; host or cells: human HeLa cells
- Sequence (P50406 whole entry): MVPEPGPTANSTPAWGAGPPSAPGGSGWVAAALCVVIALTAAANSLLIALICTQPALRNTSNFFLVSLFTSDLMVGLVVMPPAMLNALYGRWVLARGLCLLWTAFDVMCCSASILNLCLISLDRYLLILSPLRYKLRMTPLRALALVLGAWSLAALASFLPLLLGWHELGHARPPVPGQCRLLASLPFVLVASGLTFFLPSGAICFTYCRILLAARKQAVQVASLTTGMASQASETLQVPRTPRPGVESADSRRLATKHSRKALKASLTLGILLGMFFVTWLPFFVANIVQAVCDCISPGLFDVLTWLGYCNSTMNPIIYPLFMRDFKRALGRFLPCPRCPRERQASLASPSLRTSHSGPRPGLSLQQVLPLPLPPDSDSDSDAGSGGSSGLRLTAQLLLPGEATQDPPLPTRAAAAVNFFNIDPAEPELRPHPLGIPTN
- protocol_summary: Serotonin 5-HT6 radioligand binding ([3H]LSD)
- measurement_setup: 2 h; read-out: Percent Inhibition of ligand binding Serotonin (1 μM ligand concentration) 5-HT6
- Method: To evaluate in radioligand binding assays the activity of compounds of the invention, human recombinant serotonin (5-Hydroxytryptamine) 5-HT6 receptor expressed in human HeLa cells (Monsma, F. J. Jr. et al., Mol. Pharmacol. 43:320, 1993) in a modified Tris-HCl buffer (50 mM Tris-HCl, pH 7.4, 150 mM NaCl, 2 mM Ascorbic Acid, 0.001% BSA) was used. […] Receptor proteins were filtered and washed, the filters were then counted to determine [3H]LSD specifically bound. […]
reported_metric: inhibition at 1 µM (%)
Kindly answer with a numeric value in %, unit omitted.

1. Cc1ccc2c(c1)c1c(n2CCc2ccc(C(F)(F)F)nc2)CN(C)CC1 = 6
2. CCC1c2c(c3cc(C)ccc3n2/C=C(\C)c2ccc(Cl)c(Cl)c2)CCN1C (stereo not shown) = 6
3. C/C(=C\n1c2c(c3cc(Cl)ccc31)CCN(C)C2C)c1ccc(Cl)cc1 (stereo not shown) = 69

// switching to the query compound
Q) Requested field: inhibition at 1 µM. Item: CN1CCc2c(n(CC(C)(O)c3ccc(F)cc3)c3ccc(Cl)cc23)C1 (stereo not shown)
A) 77
